System: crabgrass, large (large crabgrass, Digitaria sanguinalis)
assay procedure: Test F pre-/postemergence: crabgrass, large
Format: in vivo
measurement setup: Preemergence, 16 g ai/ha; scale 0 to 100, 0 no effect, 100 complete control
result type: Plant response rating, Crabgrass, Large

compound="CCc1nn(-c2ccc(C(F)(F)F)cc2)nc1Oc1ccnc(C(F)(F)F)c1 [Compound 169]" target_or_system="crabgrass, large (large crabgrass, Digitaria sanguinalis)" result=98
compound="COc1nn(-c2cccc(F)c2)nc1Cc1ccnc(C(F)(F)F)c1 [Compound 139]" target_or_system="crabgrass, large (large crabgrass, Digitaria sanguinalis)" result=30
compound="CCOc1nn(-c2ccc(F)cc2)nc1Cc1ccnc(C(F)(F)F)c1 [Compound 196]" target_or_system="crabgrass, large (large crabgrass, Digitaria sanguinalis)" result=75
compound="Cc1nn(-c2ccc(C(F)(F)F)c(F)c2)nc1Oc1ccnc(C(F)(F)F)c1 [Compound 148]" target_or_system="crabgrass, large (large crabgrass, Digitaria sanguinalis)" result=95

Moving on to another compound below.
stdin: Give the value of Plant response rating, Crabgrass, Large reported for the following: CCc1nn(-c2ccc(F)cc2)nc1Cc1ccnc(C(F)(F)F)c1 [Compound 154]
stdout: 50

* * *

Tested on: pigweed (Amaranthus retroflexus)
assay procedure: Test A pre-/postemergence: pigweed
Format: in vivo
measurement setup: Postemergence, 500 g ai/ha; 0 to 100 scale, 0 is no effect, 100 is complete control
# key: entry, value: Pigweed plant response rating
Could you keep your reply to the number by itself?

structure_smiles=CCCc1nn(-c2ccc(F)cc2)nc1Oc1ccnc(C(F)(F)F)c1 target_or_system="pigweed (Amaranthus retroflexus)" numeric_result=100
structure_smiles=CCOc1nn(-c2ccc(F)cc2)nc1C(=O)c1ccnc(C(F)(F)F)c1 target_or_system="pigweed (Amaranthus retroflexus)" numeric_result=100
structure_smiles=CC(C)(C)c1nn(-c2ccc(F)cc2)nc1Cc1ccnc(C(F)(F)F)c1 target_or_system="pigweed (Amaranthus retroflexus)" numeric_result=0

stdin: Tell me measured Pigweed plant response rating for "CCOc1nn(-c2ccc(F)cc2F)nc1Cc1ccnc(C(F)(F)F)c1" please.
stdout: 100

stdin: Dear colleague, please send me the reported Pigweed plant response rating for "CCc1nn(-c2ccc(C(F)(F)F)c(F)c2)nc1Oc1ccnc(C(F)(F)F)c1" when you can.
stdout: 100

* * *

Test system: chickweed (common chickweed, Stellaria media)
assay procedure: Test C postemergence: chickweed
Format: in vivo
measurement setup: 125 g ai/ha, scale 0 to 100, 0 no effect, 100 complete control
Here the recorded Plant response rating, Chickweed is given for each entry.

structure_smiles=CCc1nn(-c2ccc(F)c(F)c2)nc1Oc1ccnc(C(F)(F)F)c1 result=95
structure_smiles=FCc1nn(-c2ccc(F)cc2)nc1Oc1ccnc(C(F)(F)F)c1 result=98
structure_smiles=Cc1nn(-c2ccc(C(F)(F)F)cc2)nc1Oc1ccnc(C(F)(F)F)c1 result=100

stdin: Respond only with Plant response rating, Chickweed recorded for "FC(F)(F)c1ccc(-n2nc(Cl)c(Cc3ccnc(C(F)(F)F)c3)n2)cc1"
stdout: 95

stdin: Recall and state the measured Plant response rating, Chickweed for "FC(F)Oc1nn(-c2ccc(C(F)(F)F)cc2)nc1Cc1ccnc(C(F)(F)F)c1" .
stdout: 100

stdin: Report Plant response rating, Chickweed for "CCOc1nn(-c2ccc(C(F)(F)F)cc2)nc1Cc1ccnc(C(F)(F)F)c1"
stdout: 45

* * *

Test system: galium (catchweed bedstraw, Galium aparine)
assay procedure: Test C pre-/postemergence: galium
Format: in vivo
measurement setup: Postemergence, 62 g ai/ha; scale 0 to 100 (0 no effect, 100 complete control)
Criterion: Plant response rating, Galium strictly under 70. Met: met. Not met: not met.

Some solved entries appear below for comparison.
structure_smiles=Cc1nn(-c2ccc(C(F)(F)F)cc2)nc1Oc1ccnc(C(F)(F)F)c1 answer_label="not met"
structure_smiles=Cc1nn(-c2ccc(C(F)(F)F)cn2)nc1Cc1cccc(C(F)(F)F)c1 answer_label=met
structure_smiles=CCc1nn(-c2ccc(F)cc2)nc1Cc1ccnc(C(F)(F)F)c1 answer_label=met

stdin: Is the reported Plant response rating, Galium for "CCOc1nn(-c2ccc(Cl)cc2)nc1Cc1ccnc(C(F)(F)F)c1" strictly below 70?
stdout: not met

stdin: is_below(Plant response rating, Galium, 70) for "FCc1nn(-c2ccc(F)cc2)nc1Oc1ccnc(C(F)(F)F)c1" ?
stdout: not met

stdin: Determine if "Cc1nn(-c2ccnc(Cl)c2)nc1Cc1ccnc(C(F)(F)F)c1" shows Plant response rating, Galium strictly lower than 70.
stdout: not met

stdin: Could you please tell me whether Plant response rating, Galium recorded for "Cc1nn(-c2ccc(F)c(C(F)(F)F)c2)nc1Cc1ccnc(C(F)(F)F)c1" is less than 70?
stdout: not met

stdin: Determine whether this compound shows Plant response rating, Galium lower than 70 (ties excluded): "FC(F)Oc1nn(-c2ccc(C(F)(F)F)cc2)nc1Cc1ccnc(C(F)(F)F)c1"
stdout: met

stdin: Is Plant response rating, Galium of "CCc1nn(-c2ccc(F)c(F)c2)nc1Oc1ccnc(C(F)(F)F)c1" strictly below 70?
stdout: not met

* * *

System: crabgrass, large (large crabgrass, Digitaria sanguinalis)
assay procedure: Test A pre-/postemergence: crabgrass, large
Assay type: in vivo
measurement setup: Preemergence, 500 g ai/ha; 0 to 100 scale, 0 is no effect, 100 is complete control
result type: Plant response rating, Crabgrass, Large
Could you keep your reply to the number by itself?

Some solved cases for reference:
compound="Cc1nn(-c2ccc(F)cc2)nc1Oc1cccc(C(F)(F)F)c1 [Compound 98]" result_type="Plant response rating, Crabgrass, Large" numeric_result=100
compound="Cc1nn(-c2ccc(C(F)(F)F)cc2)nc1Oc1ccnc(OCC(F)(F)F)c1 [Compound 77]" result_type="Plant response rating, Crabgrass, Large" numeric_result=10
compound="Cc1nn(-c2ccc(C(F)(F)F)cc2)nc1Nc1cccc(C(F)(F)F)c1 [Compound 69]" result_type="Plant response rating, Crabgrass, Large" numeric_result=10

Could you now consider this next compound?
stdin: Report Plant response rating, Crabgrass, Large from crabgrass, large (large crabgrass, Digitaria sanguinalis) testing of Cc1nn(-c2ccc(Cl)nc2)nc1C(=O)c1cccc(C(F)(F)F)c1 [Compound 72]
stdout: 10

* * *

Tested on: pigweed (Amaranthus retroflexus)
assay procedure: Test A pre-/postemergence: pigweed
Assay type: in vivo
measurement setup: Preemergence, 500 g ai/ha; 0 to 100 scale (0 no effect, 100 complete control)
Excerpt: Seeds of barnyardgrass (Echinochloa crus-galli), crabgrass, large (large crabgrass, Digitaria sanguinalis), foxtail, giant (giant foxtail, Setaria faberii), morningglory (Ipomoea spp.), pigweed (Amaranthus retroflexus), velvetleaf (Abutilon theophrasti), wheat (Triticum aestivum), and corn (Zea mays) were planted into a blend of loam soil and sand and treated preemergence with a directed soil spray using test chemicals formulated in a non-phytotoxic solvent mixture which included a surfactant. […]
Each item that follows carries a reported Plant response rating, Pigweed.
// print number alone

compound="CCc1nn(-c2ccc(C(F)(F)F)c(F)c2)nc1Oc1ccnc(C(F)(F)F)c1 [Compound 183]" target_or_system="pigweed (Amaranthus retroflexus)" numeric_result=100
compound="Cc1nn(-c2ccc(F)cc2)nc1Cc1cccc(C(F)(F)F)c1 [Compound 157]" target_or_system="pigweed (Amaranthus retroflexus)" numeric_result=100
compound="CON=C(c1cccc(C(F)(F)F)c1)c1nn(-c2ccnc(C(F)(F)F)c2)nc1C [Compound 140]" target_or_system="pigweed (Amaranthus retroflexus)" numeric_result=80
compound="FCc1nn(-c2ccc(F)cc2)nc1Oc1ccnc(C(F)(F)F)c1 [Compound 160]" target_or_system="pigweed (Amaranthus retroflexus)" numeric_result=100
compound="CC(C)Oc1nn(-c2ccc(C(F)(F)F)cc2)nc1Cc1ccnc(C(F)(F)F)c1 [Compound 192]" target_or_system="pigweed (Amaranthus retroflexus)" numeric_result=40

stdin: Quick one: give measured Plant response rating, Pigweed for Oc1nn(-c2ccc(C(F)(F)F)cc2)nc1Cc1ccnc(C(F)(F)F)c1 [Compound 198]
stdout: 0

stdin: Name the recorded Plant response rating, Pigweed of the compound listed here: Cc1nn(-c2ccc(C(F)(F)F)cc2)nc1Oc1ccnc(C(F)(F)F)c1 [Compound 120]
stdout: 100

stdin: Give the reported Plant response rating, Pigweed for this compound. CC(C)(C)c1nn(-c2ccc(F)cc2)nc1Cc1ccnc(C(F)(F)F)c1 [Compound 176]
stdout: 0

* * *

The molecules listed here are annotated with their Plant response rating, Foxtail, Giant.
Tested on: foxtail, giant (giant foxtail, Setaria faberii)
assay procedure: Test C pre-/postemergence: foxtail, giant
Format: in vivo
measurement setup: Postemergence, 62 g ai/ha; scale 0 to 100 (0 no effect, 100 complete control)

structure_smiles=CCOc1nn(-c2ccc(C(F)(F)F)cc2)nc1Cc1ccnc(C(F)(F)F)c1 result=20
structure_smiles=CCc1nn(-c2ccc(F)c(F)c2)nc1Oc1ccnc(C(F)(F)F)c1 result=35
structure_smiles=Fc1ccc(-n2nc(Cc3ccnc(C(F)(F)F)c3)c(OC(F)F)n2)cc1 result=45
structure_smiles=CCCc1nn(-c2ccc(F)cc2)nc1Oc1ccnc(C(F)(F)F)c1 result=65
structure_smiles=Cc1nn(-c2ccc(C(F)(F)F)cn2)nc1Cc1cccc(C(F)(F)F)c1 result=40
structure_smiles=CCc1nn(-c2ccc(C(F)(F)F)c(F)c2)nc1Oc1ccnc(C(F)(F)F)c1 result=45
structure_smiles=Cc1nn(-c2ccc(F)c(C(F)(F)F)c2)nc1Cc1ccnc(C(F)(F)F)c1 result=15

We now examine a further molecule.
stdin: Give Plant response rating, Foxtail, Giant only, for "CCOc1nn(-c2ccc(Cl)cc2)nc1Cc1ccnc(C(F)(F)F)c1" , using foxtail, giant (giant foxtail, Setaria faberii) data.
stdout: 98
